- test.method.notes: chemical genetic growth profiling, strain panel (AID 1159580);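 note: tested at 20 µM; growth read once vehicle control cultures reached saturation at 30 °C; 1 = growth at the plate median or of vehicle wells; lower values mean less growth of the strain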
- test.context: S. cerevisiae deletion strains, growth OD, locus YPL240C, strain hsp82
Among all 5,500 compounds or so, about 2,000 (36%) were called active. Not shown: some 18% with an inconclusive outcome. Cut-off read from the data, not from the text of the source: active = normalized growth mostly below about 0.91 (no sharp cut-off); inconclusive = no clear call, values can overlap the other calls; inactive = mostly above about 0.92. The list shows a part of the results.
Select the matching outcome among true = active, false = inactive

Which outcome did this test record for the molecule "COP(=S)(OC)Oc1ccc([N+](=O)[O-])cc1" ?
false

Which outcome did this test record for the molecule O=c1cccc2n1CC1CC2CN2CCCC[C@@H]12 (stereo partly drawn) ?
false

Which outcome did this test record for the molecule "NC1(C(=O)O)CC1" ?
false

Which outcome did this test record for the molecule "NCCCNCCSP(=O)(O)O" ?
false

Which outcome did this test record for the molecule C[C@]12C=CC(=O)C=C1CCC1C2[C@@H](O)C[C@@]2(C)C1CC[C@]2(O)C(=O)CO (stereo partly drawn) ?
false

Which outcome did this test record for the molecule O=C(O)C(O)C(O)C(=O)O (stereo not drawn) ?
false

Which outcome did this test record for the molecule "COP(=S)(OC)Oc1ccc(Sc2ccc(OP(=S)(OC)OC)cc2)cc1" ?
false

Which outcome did this test record for the molecule "N[C@@H](C(=O)O)[C@@H](O)[C@H](O)[C@H](O)CO" ?
false

Which outcome did this test record for the molecule "CN(C/C=C/C#CC(C)(C)C)Cc1cccc2ccccc12" ?
true

Which outcome did this test record for the molecule Cc1cccc(C)c1NC(=O)C1CCCCN1C (stereo not drawn) ?
false

Which outcome did this test record for the molecule CC(=O)C1CCC2C3CCC4C[C@H](O)CCC4(C)C3C[C@H](O)C12C (stereo partly drawn) ?
false

Which outcome did this test record for the molecule CC1CCC(NC(=O)N(CCCl)N=O)CC1 (stereo not drawn) ?
true

Which outcome did this test record for the molecule "COc1cc(NS(C)(=O)=O)ccc1Cc1c2ccccc2nc2ccccc12" ?
false

Which outcome did this test record for the molecule "CC(=O)OC/C=C(\C)CC/C=C(\C)CC/C=C(\C)CC/C=C(\C)CC/C=C(\C)CC/C=C(\C)CC/C=C(\C)CC/C=C(\C)CCC=C(C)C" ?
false

Which outcome did this test record for the molecule O=C(O)C1CCCNC1 (stereo not drawn) ?
false

Which outcome did this test record for the molecule "CC(C)c1nc(N(C)S(C)(=O)=O)nc(-c2ccc(F)cc2)c1/C=C/[C@@H](O)C[C@@H](O)CC(=O)O" ?
false

Which outcome did this test record for the molecule CCCCCCCCCCCCCC(=O)OC1C(C)C2(O)C(C=C(CO)CC3(O)C(=O)C(C)=CC32)C2C(C)(C)C12OC(C)=O (stereo not drawn) ?
false

Which outcome did this test record for the molecule "Cc1oncc1C(=O)Nc1ccc(C(F)(F)F)cc1" ?
false

----------
- test.method.notes: chemical genetic growth profiling, strain panel (AID 1159580);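 note: tested at 20 µM; growth read once vehicle control cultures reached saturation at 30 °C; 1 = growth at the plate median or of vehicle wells; lower values mean less growth of the strain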
- test.context: S. cerevisiae deletion strains, growth OD, locus YDR159W, strain sac3, hits give low values
Screen size: about 5,500 compounds; about 2,000 (36%) were called active. Inconclusive results (about 18%) are left out. The list shows a part of the results.
I'd be grateful if you could share measured normalized growth for these entries.
Give a plain numeric answer without units written out.

Please report the recorded normalized growth for "CC(C)c1nc(N(C)S(C)(=O)=O)nc(-c2ccc(F)cc2)c1/C=C/[C@@H](O)C[C@@H](O)CC(=O)O" .
0.998

Please report the recorded normalized growth for COC(=O)[C@@H]1OC(=O)C2OC23[C@@]1(C)CCC1[C@]2(C)C(C[C@@H](O)[C@]13C)C(C)(C)[C@H](OC(C)=O)C[C@@H]2OC(C)=O (stereo partly drawn) .
0.985

Please report the recorded normalized growth for Cc1cccc(C)c1NC(=O)C1CCCCN1C (stereo not drawn) .
0.983
